Target system: Carbonic anhydrase 1 (Homo sapiens)
Sequence (P00915 whole entry): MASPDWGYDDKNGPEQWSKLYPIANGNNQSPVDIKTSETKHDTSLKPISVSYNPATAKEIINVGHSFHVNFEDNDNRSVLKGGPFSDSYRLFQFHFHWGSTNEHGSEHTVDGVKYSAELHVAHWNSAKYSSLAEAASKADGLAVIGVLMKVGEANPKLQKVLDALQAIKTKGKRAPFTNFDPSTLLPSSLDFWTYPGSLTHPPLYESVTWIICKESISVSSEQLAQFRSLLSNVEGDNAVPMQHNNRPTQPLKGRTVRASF
Entries and their Ki values follow.
Give just the number in nM; leave the unit off.

                                item_smiles  numeric_value
0  NS(=O)(=O)c1cc(S(N)(=O)=O)c(NC(=O)CN(CC(=O)O)CC(=O)O)c(Cl)c1Cl            345

Input: Form field - read-out: Ki; system: Carbonic anhydrase 1 (Homo sapiens); submitted item: NS(=O)(=O)c1ccc(NC(=O)CN(CCOCCOCCN(CC(=O)O)CC(=O)O)CC(=O)O)c(F)c1
Output: 210

Input: Form field - read-out: Ki; system: Carbonic anhydrase 1 (Homo sapiens); submitted item: NS(=O)(=O)c1ccc(CCNC(=O)CN(CCOCCOCCN(CC(=O)O)CC(=O)O)CC(=O)O)cc1
Output: 290

Input: Form field - read-out: Ki; system: Carbonic anhydrase 1 (Homo sapiens); submitted item: NS(=O)(=O)c1ccccc1NC(=O)CN(CCN(CC(=O)O)c1ccccc1O)c1ccccc1O
Output: 12500

Input: Form field - read-out: Ki; system: Carbonic anhydrase 1 (Homo sapiens); submitted item: NS(=O)(=O)c1nnc(NC(=O)CCNC(=O)CN(CCN(CC(=O)O)CC(=O)O)CC(=O)O)s1
Output: 200

###

Entries and their logD values follow.
Experimental context: octanol/water
Write no unit; give the number alone.

>>> df
                                   compound  experimental_readout  numeric_value
0  NS(=O)(=O)c1nnc(NC(=O)CCNC(=O)CN(CCN(CC(=O)O)c2ccccc2O)c2ccccc2O)s1                  logD          2.354
1  NS(=O)(=O)c1ccc(NC(=O)CN(CCOCCOCCN(CC(=O)O)CC(=O)O)CC(=O)O)c(Br)c1                  logD          1.747
2  NS(=O)(=O)c1ccc(NC(=O)CN(CCN(CCN(CC(=O)O)CC(=O)Nc2ccc(S(N)(=O)=O)cc2)CC(=O)O)CC(=O)O)cc1                  logD          1.456
3  NS(=O)(=O)c1nc2ccc(OC(=O)CNCCNCC(=O)O)cc2s1                  logD          1.166
4  Cn1nc(S(N)(=O)=O)s/c1=N/C(=O)CN(CCN(CC(=O)O)CC(=O)/N=c1/sc(S(N)(=O)=O)nn1C)CC(=O)O                  logD          1.333
5  NS(=O)(=O)c1nnc(NC(=O)CN(CCN(CCN(CC(=O)O)CC(=O)O)CC(=O)O)CC(=O)O)s1                  logD          1.375
6  NS(=O)(=O)c1ccc(NC(=O)CN(CCN(CCN(CC(=O)O)CC(=O)O)CC(=O)O)CC(=O)O)cc1                  logD          0.983
7  NS(=O)(=O)c1cc(S(N)(=O)=O)c(NC(=O)CN(CCN(CC(=O)O)CC(=O)Nc2c(S(N)(=O)=O)cc(S(N)(=O)=O)c(Cl)c2Cl)CC(=O)O)c(Cl)c1Cl                  logD          1.764
8  NS(=O)(=O)c1nnc(NC(=O)CCNC(=O)CN(CCN(CC(=O)O)CC(=O)NCCC(=O)Nc2nnc(S(N)(=O)=O)s2)CC(=O)O)s1                  logD           1.15
9  NS(=O)(=O)c1ccc(NC(=O)CN(CCOCCOCCN(CC(=O)O)CC(=O)Nc2ccc(S(N)(=O)=O)cc2F)CC(=O)O)c(F)c1                  logD          1.534

Input: Return reported logD; argument: Cn1nc(S(N)(=O)=O)s/c1=N/C(=O)CN(CCN(CC(=O)O)CC(=O)O)CC(=O)O
Output: 1.75

Input: Return reported logD; argument: NS(=O)(=O)c1nnc(NC(=O)CN(CCOCCOCCN(CC(=O)O)CC(=O)O)CC(=O)O)s1
Output: 1.446

Input: Return reported logD; argument: NS(=O)(=O)C1N=NC(NC(=O)CN(CCN(CCN(CC(=O)O)CC(=O)NC2N=NC(S(N)(=O)=O)S2)CC(=O)O)CC(=O)O)S1 (stereo not drawn)
Output: 1.961
